Reported values of kon for individual entries
- TARGET OF ASSAY: T1, His-tagged CEACAM1 (human, UniProt P13688 35-428)
- T1 construct: 45 kDa SPR analyte; also called CEACAM1-HIS; CEACAM1 analyte
- T1 sequence: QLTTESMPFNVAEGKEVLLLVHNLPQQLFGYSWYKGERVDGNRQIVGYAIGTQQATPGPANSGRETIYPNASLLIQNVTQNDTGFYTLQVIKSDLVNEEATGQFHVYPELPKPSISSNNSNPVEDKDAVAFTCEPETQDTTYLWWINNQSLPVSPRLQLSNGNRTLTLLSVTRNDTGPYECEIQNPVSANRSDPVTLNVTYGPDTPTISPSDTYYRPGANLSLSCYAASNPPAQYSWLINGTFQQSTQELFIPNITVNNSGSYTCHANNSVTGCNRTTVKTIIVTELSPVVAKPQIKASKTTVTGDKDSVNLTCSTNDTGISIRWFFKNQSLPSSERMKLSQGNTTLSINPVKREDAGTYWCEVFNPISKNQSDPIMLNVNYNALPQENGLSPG
- PROTOCOL: SPR multi-cycle, IgG captured
Lab book: enter the figure in M⁻¹ s⁻¹, no units written.

Use these answered entries as a reference point.
BINDER	kon / M⁻¹ s⁻¹
VH2/Vκ11 (antibody, IgG4, V domains shown, IgG4 (S241P), kappa) VH: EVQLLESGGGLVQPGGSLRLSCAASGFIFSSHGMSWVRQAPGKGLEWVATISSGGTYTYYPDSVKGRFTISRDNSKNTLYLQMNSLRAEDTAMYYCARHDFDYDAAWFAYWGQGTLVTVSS VL: EIVLTQSPATLSLSPGERATLSCRANSSVSYMYWYQQKPGQAPRPWIYLTSNRATGIPARFSGSGSGTDYTLTISSLEPEDFAVYYCQQWSSNPPTFGQGTKLEIK	375000
VH2/Vκ10 (antibody, IgG4, V domains shown, IgG4 (S241P), kappa) VH: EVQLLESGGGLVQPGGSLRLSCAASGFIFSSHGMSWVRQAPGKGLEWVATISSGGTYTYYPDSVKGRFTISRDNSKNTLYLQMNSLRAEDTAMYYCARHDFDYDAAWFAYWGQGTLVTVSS VL: EIVLTQSPATLSLSPGERATLSCRANSSVSYMYWYQQKPGQAPRPWIYLTSNRATGIPARFSGSGSGTDFTLTISSLEPEDFATYYCQQWSSNPPTFGQGTKLEIK	407000
VH1/Vκ10 (antibody, IgG4, V domains shown, IgG4 (S241P), kappa) VH: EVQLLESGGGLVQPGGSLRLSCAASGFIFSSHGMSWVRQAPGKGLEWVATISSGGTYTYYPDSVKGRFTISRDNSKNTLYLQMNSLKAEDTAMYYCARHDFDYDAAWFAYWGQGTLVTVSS VL: EIVLTQSPATLSLSPGERATLSCRANSSVSYMYWYQQKPGQAPRPWIYLTSNRATGIPARFSGSGSGTDFTLTISSLEPEDFATYYCQQWSSNPPTFGQGTKLEIK	284000

Request: Which kon value is on record for VH2/Vκ8 (antibody, IgG4, V domains shown, IgG4 (S241P), kappa) VH: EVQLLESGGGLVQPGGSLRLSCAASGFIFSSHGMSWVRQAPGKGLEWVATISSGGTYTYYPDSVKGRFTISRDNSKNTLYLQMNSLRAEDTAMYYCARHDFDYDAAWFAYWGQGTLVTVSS VL: EIVLTQSPATLSLSPGERATLSCRANSSVSYMYWYQQKPGQAPRPWIYLTSNRATGVPARFSGSGSGTDYTLTISSLEPEDFAVYYCQQWSSNPPTFGQGTKLEIK ?
Result: 334000
